- Test system: Mast/stem cell growth factor receptor Kit (Homo sapiens), P10721 [L576P]
- Sequence (P10721 whole entry L576P): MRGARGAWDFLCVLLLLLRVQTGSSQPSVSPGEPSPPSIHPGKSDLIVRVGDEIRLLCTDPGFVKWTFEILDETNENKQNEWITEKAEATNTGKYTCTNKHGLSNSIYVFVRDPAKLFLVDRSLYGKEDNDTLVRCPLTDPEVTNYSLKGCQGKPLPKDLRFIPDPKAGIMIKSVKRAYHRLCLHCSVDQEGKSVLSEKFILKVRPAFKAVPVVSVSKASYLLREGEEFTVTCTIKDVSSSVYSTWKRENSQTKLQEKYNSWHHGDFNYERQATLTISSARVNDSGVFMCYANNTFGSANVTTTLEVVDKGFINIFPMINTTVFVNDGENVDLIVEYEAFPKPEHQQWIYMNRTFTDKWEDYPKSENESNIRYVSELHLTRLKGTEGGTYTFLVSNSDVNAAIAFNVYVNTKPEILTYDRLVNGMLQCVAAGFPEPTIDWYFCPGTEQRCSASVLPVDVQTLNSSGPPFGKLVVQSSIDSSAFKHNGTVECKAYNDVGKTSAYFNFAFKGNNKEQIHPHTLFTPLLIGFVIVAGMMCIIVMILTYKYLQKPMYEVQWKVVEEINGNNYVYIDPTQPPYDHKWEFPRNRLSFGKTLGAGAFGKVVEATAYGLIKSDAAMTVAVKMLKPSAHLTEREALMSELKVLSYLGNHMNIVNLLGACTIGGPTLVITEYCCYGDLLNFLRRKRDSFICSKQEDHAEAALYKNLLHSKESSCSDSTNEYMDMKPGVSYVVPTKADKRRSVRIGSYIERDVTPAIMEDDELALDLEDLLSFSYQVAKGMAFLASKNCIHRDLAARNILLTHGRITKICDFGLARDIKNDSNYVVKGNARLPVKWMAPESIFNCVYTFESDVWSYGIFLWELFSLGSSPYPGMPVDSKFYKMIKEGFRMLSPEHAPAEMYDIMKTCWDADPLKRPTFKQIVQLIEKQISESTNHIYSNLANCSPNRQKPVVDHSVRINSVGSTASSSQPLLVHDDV
- method.notes: Inhibition of KIT L576P mutant at 1 uM
endpoint.name: inhibition (%)

Task: For the compound CN1CCN(c2ccc(-c3cnc4c(c3)N(Cc3cc(F)ccc3F)CCN4)cn2)CC1 , what inhibition is on record?
Result: 75

Task: For the compound CN1CCN(c2ccc(-c3cnc4c(c3)N(Cc3cc(Cl)ccc3C(F)(F)F)CCN4)cn2)CC1 , what inhibition is on record?
Result: 80

Task: For the compound CN1CCN(c2ccc(-c3cnc4c(c3)N(Cc3cc(Cl)ccc3Cl)CCN4)cn2)CC1 , what inhibition is on record?
Result: 98

Task: For the compound CN1CCN(c2ccc(-c3cnc4c(c3)N(Cc3c(F)ccc(F)c3Cl)CCN4)cn2)CC1 , what inhibition is on record?
Result: 73

Task: For the compound FC(F)(F)c1ccc(Cl)cc1CN1CCNc2ncc(-c3ccnc(N4CCNCC4)c3)cc21 , what inhibition is on record?
Result: 99

Task: For the compound CC(=O)N1CCN(c2cc(-c3cnc4c(c3)N(Cc3cc(Cl)ccc3C(F)(F)F)CCN4)ccn2)CC1 , what inhibition is on record?
Result: 90

---

- subject.of.test: Homeodomain-interacting protein kinase 1 (Homo sapiens) (UniProt Q86Z02)
- Sequence (Q86Z02 whole entry, looked up): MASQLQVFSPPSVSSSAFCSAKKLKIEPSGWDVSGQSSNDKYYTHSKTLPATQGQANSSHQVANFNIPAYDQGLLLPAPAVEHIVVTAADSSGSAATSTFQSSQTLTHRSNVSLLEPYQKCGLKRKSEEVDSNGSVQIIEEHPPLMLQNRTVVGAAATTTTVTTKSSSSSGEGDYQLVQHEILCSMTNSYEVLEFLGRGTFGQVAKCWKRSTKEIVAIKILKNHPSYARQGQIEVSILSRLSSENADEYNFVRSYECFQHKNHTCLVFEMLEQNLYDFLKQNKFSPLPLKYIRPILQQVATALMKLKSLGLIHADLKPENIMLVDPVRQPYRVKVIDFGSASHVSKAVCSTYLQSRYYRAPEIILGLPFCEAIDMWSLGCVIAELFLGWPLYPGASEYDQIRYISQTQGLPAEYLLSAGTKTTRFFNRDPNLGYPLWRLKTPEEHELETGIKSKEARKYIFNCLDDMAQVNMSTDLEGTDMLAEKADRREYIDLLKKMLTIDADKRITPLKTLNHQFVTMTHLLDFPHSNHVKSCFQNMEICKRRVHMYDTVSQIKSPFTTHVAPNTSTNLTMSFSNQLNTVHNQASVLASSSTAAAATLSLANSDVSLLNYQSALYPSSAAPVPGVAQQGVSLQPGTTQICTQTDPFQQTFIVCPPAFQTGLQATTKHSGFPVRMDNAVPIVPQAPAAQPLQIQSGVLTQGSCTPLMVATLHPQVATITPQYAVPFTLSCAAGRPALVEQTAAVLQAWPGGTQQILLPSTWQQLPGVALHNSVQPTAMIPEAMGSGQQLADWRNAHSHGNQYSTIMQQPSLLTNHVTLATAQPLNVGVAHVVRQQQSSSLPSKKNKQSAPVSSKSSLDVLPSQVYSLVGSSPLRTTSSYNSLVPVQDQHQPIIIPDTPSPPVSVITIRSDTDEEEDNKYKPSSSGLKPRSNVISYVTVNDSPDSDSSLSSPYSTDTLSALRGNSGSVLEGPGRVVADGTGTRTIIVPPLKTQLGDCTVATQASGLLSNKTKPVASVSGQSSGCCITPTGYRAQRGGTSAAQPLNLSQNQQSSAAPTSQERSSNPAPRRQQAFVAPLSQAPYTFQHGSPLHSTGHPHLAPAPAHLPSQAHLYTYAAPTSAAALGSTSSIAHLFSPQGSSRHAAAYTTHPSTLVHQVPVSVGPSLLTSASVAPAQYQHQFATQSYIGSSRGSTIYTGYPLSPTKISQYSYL
- method.notes: Inhibition of HIPK1 at 1 uM
endpoint.name: inhibition

// worked examples, inhibition included
Task: For the molecule O=C(c1ccc(-c2cnc3c(c2)N(Cc2cc(Cl)ccc2C(F)(F)F)CCN3)cc1)N1CCCCC1 , what inhibition is on record?
Result: < 50%

Task: For the molecule O=C(c1ccc(-c2cnc3c(c2)N(Cc2cc(Cl)ccc2C(F)(F)F)CCN3)cc1)N1CCC(N2CCCC2)CC1 , what inhibition is on record?
Result: < 50%

Task: For the molecule CN1CCN(c2ccc(-c3cnc4c(c3)N(Cc3cc(Cl)ccc3Cl)CCN4)cn2)CC1 , what inhibition is on record?
Result: < 50%

Task: For the molecule O=C(O)c1ccc(-c2cnc3c(c2)N(Cc2cc(Cl)ccc2C(F)(F)F)CCN3)cc1 , what inhibition is on record?
Result: < 50%

Task: For the molecule CN1CCN(c2ccc(-c3cnc4c(c3)N(Cc3c(F)ccc(F)c3Cl)CCN4)cn2)CC1 , what inhibition is on record?
Result: 70%

Task: For the molecule CN1CCN(c2ccc(-c3cnc4c(c3)N(Cc3cc(F)ccc3F)CCN4)cn2)CC1 , what inhibition is on record?
Result: 72.2%

Task: For the molecule CC(=O)N1CCN(c2cc(-c3cnc4c(c3)N(Cc3cc(Cl)ccc3C(F)(F)F)CCN4)ccn2)CC1 , what inhibition is on record?
Result: < 50%

Task: For the molecule COC1CCN(C(=O)c2ccc(-c3cnc4c(c3)N(Cc3cc(Cl)ccc3C(F)(F)F)CCN4)cc2)CC1 , what inhibition is on record?
Result: < 50%

More entries:
Task: For the molecule CN1CCN(c2ccc(-c3cnc4c(c3)N(Cc3cc(Cl)ccc3C(F)(F)F)CCN4)cn2)CC1 , what inhibition is on record?
Result: < 50%

Task: For the molecule FC(F)(F)c1ccc(Cl)cc1CN1CCNc2ncc(-c3ccnc(N4CCNCC4)c3)cc21 , what inhibition is on record?
Result: < 50%
